Test: AP1 Signaling Pathway (AID 357);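 also: ME-180 reporter cells stimulated with EGF at its EC50 level; % is scaled to controls: 0 for no effect and ±100 for the full control effect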
Conditions: ME-180 (cervical carcinoma) AP-1-bla reporter, EGF-induced, beta-lactamase ratio, 5 h; at 17.2 µM (top of the series) unless noted
Results filed as inconclusive are left out.
reportedProperty: activity change, negative = inhibition (%)
Provide the reading as a plain figure in %.

Check out these entries, answers already filled in.
molecule	reportedProperty	reading
Cn1c(=O)c2c(nc(N3CCN(Cc4ccccc4)CC3)n2CC(=O)c2ccccc2)n(C)c1=O	activity change, negative = inhibition	-9.66
C=CCc1c(C)c(C#N)c2nc3ccccc3n2c1N1CCN(C)CC1	activity change, negative = inhibition	-17.1
COCCCNC(=O)c1c(N)n(/N=C/c2cccs2)c2nc3ccccc3nc12	activity change, negative = inhibition	24.9

Asked: Request the reported activity change, negative = inhibition associated with `COc1cc(C(=O)NCC(=O)n2nc(C)cc2C)cc(OC)c1OC`
Given back: 0.479

Asked: # activity change, negative = inhibition lookup, item `O=C(c1ccc(F)cc1)N1CCC(N2CCCCCC2)CC1`
Given back: -5.56
